# experimental_protocol: Phase 1b MAD plasma pharmacokinetics, non-compartmental analysis
# Format: in vivo, human
# recorded_conditions: human, plasma, po, 360 mg SDD, Table 34 (interim): Cohort D (AD), 360 mg SDD (90 mg NTRX-07) QD oral, Day 1; mean ± S.D.
# Description: Methods: All study procedures were approved by the IRB, and informed consent was obtained. […] Subjects were assessed for changes in vital signs, including maneuvers to induce lightheadedness, electrocardiograms, 24-hour electroencephalograms (EEG), and safety laboratory studies. […] Raw bioanalytical data were received from Nuvisan following analysis of plasma samples from each of four cohorts. PK parameters were calculated by noncompartmental analysis using standard equations. […]
recorded_metric: AUC over 24 h (AUC0-24) (ng·h/mL)
Numbers only; they are read as ng·h/mL.

Request: Report AUC over 24 h (AUC0-24) for CC1(Cc2ccccc2)COc2cc(C(=O)N3CCCCC3)ccc21 (stereo not shown) [NTRX-07] please.
Result: 1560
